# Test system: CP262
# method description: qHTS profiling for inhibitors of Plasmodium falciparum proliferation (AID 504749); note: nearly all actives have a fitted effect of over 60% in size
# reported conditions: P. falciparum in erythrocytes, SYBR Green DNA, 72 h; series mostly up to 28.7 µM
Inconclusive results are not listed. Calls of active or inactive are those of the source. Calls come from the whole dose curve; as a rule, active = well fitted inhibition curve with a large enough effect; inconclusive = small, poorly fitted or top-dose-only effect; inactive = flat fitted curve, though single readings scatter.
readout kind: outcome

[
  {
    "compound": "CC(O)C(O)[C@H]1CNc2nc(N)[nH]c(=O)c2N1 (some centres undefined)",
    "test value": "inactive"
  },
  {
    "compound": "CCCCCCCCCCCCCCC[C@H](O)[C@H](N)CO",
    "test value": "inactive"
  },
  {
    "compound": "CC(C)NC[C@H](O)COc1ccc(CC(N)=O)cc1",
    "test value": "inactive"
  },
  {
    "compound": "CCCCCCCCCCCCCCCCCCOC[C@H](COP(=O)([O-])OCC[N+](C)(C)C)OC",
    "test value": "inactive"
  }
]
